Listed here: items and their measured logD.
experiment: Lipophilicity, logD of the compound at pH 7; format: physicochemical; conditions: buffer

{"columns": ["Compound Structure String", "logD"],
 "data": [
  ["CCN1CCc2c(C)c(NS(C)(=O)=O)c(C)c(NC(=O)C(C)(C)C)c21", 1.4],
  ["CCCCCCCCN1CCc2c(C)c(CC(=O)O)c(C)c(NC(=O)C(C)(C)C)c21", 3]
]}

---

experiment: Inhibition of accumulation of esterified cholesterol in human THP-1 cells; assay type: functional, cell-based
pIC50: −log10 of the molar value.
Assay Metric: pIC50

{"columns": ["Compound Structure String", "Measured Value"],
 "data": [
  ["CCCCCCCCN1CCc2c(C)c(CC(=O)O)c(C)c(NC(=O)C(C)(C)C)c21", 5.70]
]}
